Please go through the items and note down their pIC50.
- Test target: mGluR1 (Rattus norvegicus, UniProt P23385)
- Construct: endogenous in cells
- Sequence (P23385 19-1199): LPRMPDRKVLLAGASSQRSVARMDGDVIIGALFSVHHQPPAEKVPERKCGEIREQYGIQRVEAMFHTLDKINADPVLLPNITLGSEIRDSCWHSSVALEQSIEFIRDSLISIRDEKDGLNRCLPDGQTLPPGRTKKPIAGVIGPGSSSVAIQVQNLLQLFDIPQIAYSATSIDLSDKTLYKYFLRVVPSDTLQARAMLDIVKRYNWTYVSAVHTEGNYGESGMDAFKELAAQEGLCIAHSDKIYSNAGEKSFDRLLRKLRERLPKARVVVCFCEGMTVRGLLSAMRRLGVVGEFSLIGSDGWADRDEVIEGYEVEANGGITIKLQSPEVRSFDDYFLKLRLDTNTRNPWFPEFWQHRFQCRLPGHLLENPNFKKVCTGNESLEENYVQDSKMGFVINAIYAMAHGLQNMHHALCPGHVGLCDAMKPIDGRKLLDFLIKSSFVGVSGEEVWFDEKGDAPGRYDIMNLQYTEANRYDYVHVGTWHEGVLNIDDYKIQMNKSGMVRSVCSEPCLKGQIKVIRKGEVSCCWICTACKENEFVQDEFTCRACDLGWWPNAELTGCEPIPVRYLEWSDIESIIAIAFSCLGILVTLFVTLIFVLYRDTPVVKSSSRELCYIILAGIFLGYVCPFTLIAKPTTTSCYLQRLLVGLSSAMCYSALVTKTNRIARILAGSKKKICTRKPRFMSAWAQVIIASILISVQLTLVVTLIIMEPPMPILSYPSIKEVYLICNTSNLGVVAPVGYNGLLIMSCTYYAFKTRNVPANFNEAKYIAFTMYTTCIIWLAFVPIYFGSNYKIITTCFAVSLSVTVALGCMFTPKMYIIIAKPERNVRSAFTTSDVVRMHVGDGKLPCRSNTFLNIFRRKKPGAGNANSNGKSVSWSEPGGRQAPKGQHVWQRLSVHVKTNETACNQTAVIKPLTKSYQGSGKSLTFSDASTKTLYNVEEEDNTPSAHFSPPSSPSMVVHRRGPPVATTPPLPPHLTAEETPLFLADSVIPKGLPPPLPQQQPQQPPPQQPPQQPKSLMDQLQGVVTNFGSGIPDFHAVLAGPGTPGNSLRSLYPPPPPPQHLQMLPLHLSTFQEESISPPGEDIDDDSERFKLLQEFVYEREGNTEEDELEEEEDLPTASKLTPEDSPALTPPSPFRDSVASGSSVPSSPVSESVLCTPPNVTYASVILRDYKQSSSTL
- Procedure summary: PI hydrolysis assay in cerebellar granule cells (mGluR1 antagonistic activity)
// field semantics: pIC50 = negative decimal log of concentration (mol/L)

Enquiry: pIC50 for C[C@H]1CCCC[C@H]1N(C)C(=O)c1cn2c(nc3ccc(N)cc32)s1.Cl.Cl [compound B, dihydrochloride] ?
Return: 8.70

Enquiry: pIC50 for Cc1c(C(=O)N(C)C2CCCCC2)sc2nc3ccc(N)cc3n12.Cl.Cl [compound A, dihydrochloride] ?
Return: 7.66

###

- Test target: mGluR1 α (Rattus norvegicus, UniProt P23385)
- Procedure summary: PI hydrolysis assay in mGluR1 α-expressed NIH3T3 cells
- Study conditions: 100 μM glutamate, read-out: IC50 value, inhibition of PI formation induced by 100 μM glutamate
Quantity measured: IC50 (nM)
Response body: numeric value in nM, unit text excluded.

Enquiry: IC50 for C[C@H]1CCCC[C@H]1N(C)C(=O)c1cn2c(nc3ccc(N)cc32)s1.Cl.Cl [compound B, dihydrochloride] ?
Return: 1.7
